B1: RNA-binding E3 ubiquitin-protein ligase MEX3C, residues 325 to 391; numbered along this chain, Q5U5Q3 (parent)
chain: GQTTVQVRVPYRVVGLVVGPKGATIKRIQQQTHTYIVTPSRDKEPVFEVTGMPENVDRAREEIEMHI

# Variants of: B1
# test-protocol: abundance fitness (aPCA) (normalised: wild type 0, dead -1); higher = more abundant; growth selection in yeast, the domain comes from the species named
# experimental-parameters: Homo sapiens

variant-id | abundance fitness
F47A | -0.889
I28P | -0.376
T50Y | -0.598
N55T | -0.627
Q30G | -0.609
E54W | -0.174
T24A | -0.53
R41G | -0.154
A23T | -0.012
I36M | -0.885
E54N | -0.419
P45R | -0.564
G22Q | -0.189
I36S | -0.435
E54G | -0.179
F47N | -0.442
R41V | -0.088
P20A | -0.381
F47D | -1.01
P20H | -0.123
V37L | -0.315
E44A | -0.177
